# measured.target: Ribosomal protein S6 kinase alpha-3 (Homo sapiens) (UniProt P51812);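 further: reported value is a mean inhibition figure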
# Sequence (P51812 whole entry): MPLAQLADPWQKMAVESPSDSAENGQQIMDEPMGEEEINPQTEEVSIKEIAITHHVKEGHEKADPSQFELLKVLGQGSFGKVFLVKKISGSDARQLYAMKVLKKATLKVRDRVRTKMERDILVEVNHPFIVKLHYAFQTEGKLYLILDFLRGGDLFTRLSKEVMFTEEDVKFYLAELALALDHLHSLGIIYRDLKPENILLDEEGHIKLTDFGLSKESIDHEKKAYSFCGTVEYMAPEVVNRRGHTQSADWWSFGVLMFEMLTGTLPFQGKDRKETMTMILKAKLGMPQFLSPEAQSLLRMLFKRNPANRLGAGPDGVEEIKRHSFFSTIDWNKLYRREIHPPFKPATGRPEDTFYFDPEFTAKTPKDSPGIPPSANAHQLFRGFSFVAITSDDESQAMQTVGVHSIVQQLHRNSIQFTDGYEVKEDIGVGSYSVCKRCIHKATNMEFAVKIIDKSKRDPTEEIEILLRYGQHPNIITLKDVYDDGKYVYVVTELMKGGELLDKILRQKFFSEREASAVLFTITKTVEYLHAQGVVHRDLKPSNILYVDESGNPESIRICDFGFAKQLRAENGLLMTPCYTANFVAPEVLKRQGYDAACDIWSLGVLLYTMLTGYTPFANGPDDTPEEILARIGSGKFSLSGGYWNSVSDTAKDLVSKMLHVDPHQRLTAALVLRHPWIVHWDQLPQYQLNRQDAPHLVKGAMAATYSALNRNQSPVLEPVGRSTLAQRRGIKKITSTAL
# condition.notes: at 0.1 µM
Reported values of inhibition for individual entries
Quick note: give the figure in %, leave out the unit.

Would you please look over these solved cases?
COc1ccc2[nH]c3c4[nH]c5ccc(OC)cc5c4c4c(c3c2c1)C(=O)NC4=O ... 44.9
COc1ccc(-c2oc3ncnc(N)c3c2-c2ccc(NC(=O)Nc3cc(C(F)(F)F)ccc3F)cc2)cc1 ... 4.28
Nc1nc(-c2ccc(F)cc2)c(-c2ccc3ncccc3n2)s1 ... 1.7
NC(=O)c1sc(-n2cnc3ccc(C(F)(F)F)cc32)cc1OCc1ccccc1Br ... 0.56
COC(=O)c1sc(-n2cnc3cc(OC)c(OC)cc32)cc1OCc1ccccc1C(F)(F)F ... 0.27

// sample "COc1cccc(-c2c[nH]c3c(N/N=C/c4ccncc4)ncnc23)c1" , its inhibition was 1.21

Taken from ChEMBL document CHEMBL1961873.
